- Test system: MS2 coat protein
- measurement_description: apparent KD of MS2 coat protein; higher = weaker reporter binding
- conditions_used: Eterna round: R107; input ligand: none
measurement_kind: apparent KD of MS2 coat protein (nM)
Report only the number, with the unit nM understood.

Solved entries:
polymer_sequence	apparent KD of MS2 coat protein (nM)
ACAUUUAACUGAAGGAGCGUGAUAUUUACAUGAGGAUCACCCAUGUCUAUCAUGAGAUAUUCACAGGUAGGUCGCAGACUAAUGA [JR_ExcArginiB_Sub005]	26.7
GGGCCCGGGCGCGAGCCCGGGCCCAUUGAUACCAGUGAAAAUAUACGCCCUUGGCAGCGAAUCCUAACAUGAGGAUCACCCAUGU [5.A]	37.2
UGGGUACAUGAGGAUCACCCAUGUACUGAAGGAGCGAGAAAUAACUCAGGUAGGUCGCAGACAUGAGGAUCACCCAUGUAAUAAA [Exclusion Arginine A GF 10]	18
UGAGUUAGACAAAAGUCUAGCUCUGGUGAAGGAGCGUCCGAAAGGACAGGUAGGUCGCACCACCUGAGGAUCACCCGGGUUCCUA [ArgAS 13 #OpenEnded #AlternativeMS2]	167
ACCUGUACGAAAAGUGCAGGACACGGAAUACGAGGACCGGUACGGCCGCCACUCGGAAAACCUGAGGAUCACCCUGGUAACCGUG [TrypAS 11 #AlternativeMS2 #Zipper #StaticStem]	16.3

Now consider the entry below.
Exam item: Name the recorded apparent KD of MS2 coat protein for CACGGAAGAGUGGAUCACCCUCUUAAUAAACGAGGACCGGUACGGCCGCCACUCGAAAACCGUGACCUGUACGAAAAGUGCAGGA .
Marked response: 39.4

----------
- Test system: K4 kissing-loop RNA reporter;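 also: bound reporter read as fluorescence of individual clusters on recovered sequencing chips by microscopy, with normalized cluster intensities fitted with a binding model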
- measurement_description: apparent KD of K4 kissing-loop reporter; higher = weaker reporter binding
- conditions_used: Eterna round: R107; input ligand: tryptophan 2.4 mM
Recorded apparent KD of K4 kissing-loop reporter for the following sequences
Report only the number, with the unit µM understood.

polymer_sequence	apparent KD of K4 kissing-loop reporter, µM
UGUCAUUGGUCUGAUACCAGUACCCUUGGCAGCCAAGGAGUGAUGUUCCAAGGAUACCAGUACCCUUGGCAGCAGACCGAUGACU [TheoBS 25 #DoubleAptamer #SwitchBubble]	0.964
AUCAUUGAGUGAUGUUCAAUGGGUUUUCCCAAGGAUAUUCGGAGCUGAAGAAGGUGGCCCUCGAUAUCAGUAUCAACCUGAAAGC [theeternabot_exclusion_KL_FMN_A_11]	0.243
GGUAGUGCUAGCGAUACCAGUCAUAUCGCUCUGGAGUGAUGUUCCGGAACGUGCGGAGAAGACCCUUGGCAGCGCUUGACGGUGU [Exclusion Theophylline B GF5]	0.298
CGCGUAUCGGCAGGAUAUGGAGUUGAGUGAUGUUCAGCAAUGGGUCAUCAUCUUUAUGACAAUCCACCAGAAGGGCCGAUACGCG	0.812
AAAAUAAUCCAGUGAUGUUGGUCUCCAGAUACCAGCGACGAAAGUCGCCCUUGGCAGCUGUGGACGUACAAAAUAAGUACGUCCU	0.314
GCUAGUUUGGAAGGAUAUUCGUGCGAUCAAGUCAAACUUUACUGAGGGCGUUUUGGAGUGAUGUUCGAAGAAGGUCCCUUACUUA [theeternabot_exclusion_KL_FMN_B_28]	0.758

Exam item: Name the recorded apparent KD of K4 kissing-loop reporter for AGAUCUGUAACAGAUACCAGAGGACGAUGAUCGGAUAGUGAUGUUAUCUAUCAGUCGUCGCUCCCUUGGCAGCUGUUACAGAUCA [Omei KL Theo B SS B v2] .
Marked response: 0.662

Exam item: Name the recorded apparent KD of K4 kissing-loop reporter for GGAUAGGACAGAGGAUAUCUCUGAGGCAAGAAAACUUGUCUCUAAAGAGAUGACUCAGUGAUGUUGAGAGAAGGCUGUCCUAUCG [FmnBX 9 - #SwitchBubble #StaticStem] .
Marked response: 0.148

Exam item: Name the recorded apparent KD of K4 kissing-loop reporter for GGGAGUAGUGCGGCCGCCACUGAGAAAGAAGAAGAAUAUAGUGAUGUUAUGUGGGAAAGGAAGAACAGGACCGGGCAUUAGAUUU [#21 K4 Tryptophan B Same State] .
Marked response: 0.499

Exam item: Name the recorded apparent KD of K4 kissing-loop reporter for AAGGUAUCACCAACAUUGCAAGAAGGUGAUACCAGCAUCGAAAGAUGCCCUUGGCAGCACCAACUUGCAGUGAUGUUGCAAGUAA [(T)'-(H)'-(T1)-(T2)-(H1)-(H2)_Design8] .
Marked response: 0.226

Exam item: Name the recorded apparent KD of K4 kissing-loop reporter for GAUCUGAACGAAAGUUCGGAUCAUUCCGAUACCAGUAUGGAUUCAUACCCUUGGCAGCGGGAUUCUGCUAUGGAGUGAUGUUCCA [Theophylline A K4 15] .
Marked response: 0.362

Cited source: the supplement of paper PMC9170038
